- Protocol: Cytotoxicity (CC50) in LM cells, MTT assay
- Type: cell-based
- Assay conditions: mouse, LM cells (mouse fibroblasts); 50% cytotoxic concentration
Param label: returns Satisfied when CC50 at 24 h < 40 µM, returns Not satisfied otherwise, including exact equality.

• O=C(O)c1c(-c2cccc(F)c2F)oc2ccc(Br)cc2c1=O = Not satisfied
• O=C(O)c1c(-c2ccc(Cl)cc2)oc2ccc(Br)cc2c1=O = Not satisfied
• O=C(O)c1c(-c2cccc(F)c2F)oc2cc(Cl)ccc2c1=O = Satisfied
• COc1ccc(-c2oc3ccc(Br)cc3c(=O)c2C(=O)O)cc1OC = Not satisfied
• O=C(O)c1c(-c2cc(F)ccc2F)oc2ccc(Br)cc2c1=O = Satisfied
• O=C(O)c1c(-c2cccc(F)c2)oc2ccc(Cl)cc2c1=O = Not satisfied
• O=C(O)c1c(-c2cc(F)ccc2F)oc2cc(Cl)ccc2c1=O = Not satisfied
• O=C(O)c1c(-c2cc(F)cc(F)c2)oc2ccccc2c1=O = Not satisfied
• O=C(O)c1c(-c2cc(F)ccc2F)oc2ccc(Cl)cc2c1=O = Satisfied
• O=C(O)c1c(-c2cccc(F)c2)oc2cc(Cl)ccc2c1=O = Not satisfied
• O=C(O)c1c(-c2ccco2)oc2ccc(Cl)cc2c1=O = Not satisfied
• O=C(O)c1c(-c2cccc(F)c2)oc2ccc(Br)cc2c1=O = Not satisfied
• O=C(O)c1c(-c2ccco2)oc2ccc(Br)cc2c1=O = Not satisfied
• O=C(O)c1c(-c2cc(F)cc(F)c2)oc2ccc(Br)cc2c1=O = Satisfied
• O=C(O)c1c(-c2cccc(F)c2)oc2ccccc2c1=O = Not satisfied
• O=C(O)c1c(-c2ccc(F)c(F)c2)oc2ccc(Cl)cc2c1=O = Satisfied
• O=C(O)c1c(-c2cc(F)cc(F)c2)oc2ccc(Cl)cc2c1=O = Satisfied
• O=C(O)c1c(-c2cccc(F)c2F)oc2ccc(Cl)cc2c1=O = Not satisfied
• O=C(O)c1c(-c2ccc(Cl)cc2)oc2ccc(Cl)cc2c1=O = Satisfied
• COc1cccc2c(=O)c(C(=O)O)c(-c3ccc(Cl)cc3)oc12 = Not satisfied

* * *

- Target entity: UniProt P01375
- Sequence (P01375 77-233 limits assumed): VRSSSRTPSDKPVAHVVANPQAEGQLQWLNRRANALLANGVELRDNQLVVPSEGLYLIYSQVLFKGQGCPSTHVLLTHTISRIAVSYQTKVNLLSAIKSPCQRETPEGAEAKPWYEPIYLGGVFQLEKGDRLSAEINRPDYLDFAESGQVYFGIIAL
- Protocol: TNF-neutralization bioassay: TNF-induced cell death of LM cells (MTT)
- Type: cell-based
- Assay conditions: compound 50 μM, TNF 20 ng/ml, actinomycin D, LM cells, 24 hours
Let's look at some molecules and their measured inhibition at 50 µM.
Measurement label: inhibition at 50 µM

• COc1cccc2c(=O)c(C(=O)O)c(-c3cccc(C)c3)oc12 = 34.4%
• COc1ccc2c(=O)c(C(=O)O)c(-c3ccco3)oc2c1 = 26.3%
• O=C(O)c1c(-c2cc(F)cc(F)c2)oc2ccc(Br)cc2c1=O = 100%
• COc1ccc(-c2oc3ccccc3c(=O)c2C(=O)O)cc1OC = 24.3%
• O=C(O)c1c(-c2cccc(F)c2)oc2ccc(Br)cc2c1=O = 100%
• Cc1cccc(-c2oc3ccc(Br)cc3c(=O)c2C(=O)O)c1 = 7.4%
• Cc1cccc(-c2oc3c(C)cccc3c(=O)c2C(=O)O)c1 = 41%
• COc1ccc(-c2oc3cc(C)ccc3c(=O)c2C(=O)O)cc1OC = 30.9%
• Cc1ccc2oc(-c3ccc(Cl)cc3)c(C(=O)O)c(=O)c2c1 = 28.9%
• Cc1ccc2c(=O)c(C(=O)O)c(-c3cccc(F)c3)oc2c1 = 23%
• O=C(O)c1c(-c2cccc(F)c2F)oc2ccc(Cl)cc2c1=O = 100%
• O=C(O)c1c(-c2cc(F)ccc2F)oc2ccc(Cl)cc2c1=O = 100%
• COc1ccc2c(=O)c(C(=O)O)c(-c3ccc(OC)c(OC)c3)oc2c1 = 49.2%
• O=C(O)c1c(-c2cccs2)oc2ccc(Br)cc2c1=O = 27%
• O=C(O)c1c(-c2cccs2)oc2ccccc2c1=O = 47.5%
• O=C(O)c1c(-c2cccc(F)c2)oc2ccccc2c1=O = 70.2%
• COc1cccc2c(=O)c(C(=O)O)c(-c3ccco3)oc12 = 46.6%
• O=C(O)c1c(-c2ccc(Cl)cc2)oc2ccc(Br)cc2c1=O = 100%
• Cc1cccc(-c2oc3cc(C)ccc3c(=O)c2C(=O)O)c1 = 45.1%
• O=C(O)c1c(-c2ccc(Cl)cc2)oc2ccc(Cl)cc2c1=O = 97.9%

FYI, the data here is from patent US11504349B2.
